- Tested on: NCI-H358
- Assay protocol: Antiproliferative activity against human NCI-H358 cells assessed as inhibition of cell growth incubated for 48 hrs by CCK8 assay
- Assay type: functional, cell-based
- Test settings: NCI-H358, 48 h
Where a name gives a salt, the structure may show the parent alone.

{"Molecule": "C[C@@H]1CC[C@@]2(OC1)O[C@H]1C[C@H]3[C@@H]4CC=C5C[C@@H](OC(=O)/C=C/C(=O)NO)CC[C@]5(C)[C@H]4CC[C@]3(C)[C@H]1[C@@H]2C", "Op": "=", "IC50 / µM": 36.8}
{"Molecule": "C[C@@H]1CC[C@@]2(OC1)O[C@H]1C[C@H]3[C@@H]4CC=C5C[C@@H](OC(=O)CCCCCCC(=O)NO)CC[C@]5(C)[C@H]4CC[C@]3(C)[C@H]1[C@@H]2C", "Op": "=", "IC50 / µM": 23.1}
{"Molecule": "COc1cccc2c1C(=O)c1c(O)c3c(c(O)c1C2=O)C[C@@](O)(C(=O)CO)C[C@@H]3O[C@H]1C[C@H](N)[C@H](O)[C@H](C)O1 [DOXORUBICIN HYDROCHLORIDE]", "Op": "<", "IC50 / µM": 5}
{"Molecule": "CCCC[P+](CCCC)(CCCC)CCCCC(=O)O[C@H]1CC[C@@]2(C)C(=CC[C@H]3[C@@H]4C[C@@H]5O[C@]6(CC[C@@H](C)CO6)[C@@H](C)[C@@H]5[C@@]4(C)CC[C@@H]32)C1.[Br-]", "Op": "=", "IC50 / µM": 2.18}
{"Molecule": "C[C@@H]1CC[C@@]2(OC1)O[C@H]1C[C@H]3[C@@H]4CC=C5C[C@@H](OC(=O)CCCC[P+](c6ccccc6)(c6ccccc6)c6ccccn6)CC[C@]5(C)[C@H]4CC[C@]3(C)[C@H]1[C@@H]2C.[Br-]", "Op": "=", "IC50 / µM": 3.54}

----------
- Assay protocol: Water solubility of compound
- Assay type: physicochemical
- Test settings: buffer

{"Given smiles": "C[C@@H]1CC[C@@]2(OC1)O[C@H]1C[C@H]3[C@@H]4CC=C5C[C@@H](OC(=O)CCCC[P+](C)(C)C)CC[C@]5(C)[C@H]4CC[C@]3(C)[C@H]1[C@@H]2C.[Br-]", "solubility": "Soluble"}
{"Given smiles": "C[C@@H]1CC[C@@]2(OC1)O[C@H]1C[C@H]3[C@@H]4CC=C5C[C@@H](OC(=O)CCCC[P+](c6ccc(Cl)cc6)(c6ccc(Cl)cc6)c6ccc(Cl)cc6)CC[C@]5(C)[C@H]4CC[C@]3(C)[C@H]1[C@@H]2C.[Br-]", "solubility": "Soluble"}
{"Given smiles": "C[C@@H]1CC[C@@]2(OC1)O[C@H]1C[C@H]3[C@@H]4CC=C5C[C@@H](OC(=O)c6nccnc6C(=O)NO)CC[C@]5(C)[C@H]4CC[C@]3(C)[C@H]1[C@@H]2C", "solubility": "Soluble"}

----------
As shown below, each of these compounds has a reported IC50 value.
- Test system: NCI-H358
- Assay protocol: Antiproliferative activity against human NCI-H358 cells assessed as inhibition of cell growth incubated for 48 hrs by CCK8 assay
- Type: functional, cell-based
- Test settings: NCI-H358, 48 h
Result type: IC50 (µM)

{"Given smiles": "C[C@@H]1CC[C@@]2(OC1)O[C@H]1C[C@H]3[C@@H]4CC=C5C[C@@H](OC(=O)c6cccc(C(=O)NO)c6)CC[C@]5(C)[C@H]4CC[C@]3(C)[C@H]1[C@@H]2C", "Result type": "IC50", "Unit abbrev": "µM", "Value observed": 9.54}
{"Given smiles": "C[C@@H]1CC[C@@]2(OC1)O[C@H]1C[C@H]3[C@@H]4CC=C5C[C@@H](OC(=O)CCCC(=O)NO)CC[C@]5(C)[C@H]4CC[C@]3(C)[C@H]1[C@@H]2C", "Result type": "IC50", "Unit abbrev": "µM", "Value observed": 4.32}
{"Given smiles": "C[C@@H]1CC[C@@]2(OC1)O[C@H]1C[C@H]3[C@@H]4CC=C5C[C@@H](OC(=O)CCCC[P+](C)(C)C)CC[C@]5(C)[C@H]4CC[C@]3(C)[C@H]1[C@@H]2C.[Br-]", "Result type": "IC50", "Unit abbrev": "µM", "Value observed": 13.6}
{"Given smiles": "C[C@@H]1CC[C@@]2(OC1)O[C@H]1C[C@H]3[C@@H]4CC=C5C[C@@H](OC(=O)CCC(=O)NO)CC[C@]5(C)[C@H]4CC[C@]3(C)[C@H]1[C@@H]2C", "Result type": "IC50", "Unit abbrev": "µM", "Value observed": 7.47}
{"Given smiles": "C[C@@H]1CC[C@@]2(OC1)O[C@H]1C[C@H]3[C@@H]4CC=C5C[C@@H](OC(=O)CCCC[P+](c6ccc(Cl)cc6)(c6ccc(Cl)cc6)c6ccc(Cl)cc6)CC[C@]5(C)[C@H]4CC[C@]3(C)[C@H]1[C@@H]2C.[Br-]", "Result type": "IC50", "Unit abbrev": "µM", "Value observed": 1.71}
